The values you see were collected from ChEMBL document CHEMBL4312005.

System: MCF7
Experiment: Induction of apoptosis in human MCF7 cells assessed as viable cells at 10 uM incubated for 24 hrs by annexin V FITC and propidium iodide staining based flow cytometry (reference value: 76 to 95.9 %)
Assay type: functional
Settings: MCF7, 24 h, read-out: Activity
Record form. Attribute: viability at 10 µM. Fill in for each entry.
Numbers only, in %.

Past entries and their recorded results:
| COMPOUND | ATTRIBUTE MEASURED | UNIT SYMBOL | MEAS VALUE |
| --- | --- | --- | --- |
| N#Cc1c(/N=C/c2ccco2)c(C(=O)Nc2ccc(Br)cc2)n2c1CCC2 | viability at 10 µM | % | 71.2 |
| CC(C)C/C=N/c1c(C#N)c2n(c1C(=O)Nc1ccc(Br)cc1)CCC2 | viability at 10 µM | % | 57.6 |

List reported viability at 10 µM for each of these compounds:
1. CCC1SCC(=O)N1c1c(C#N)c2n(c1C(=O)Nc1ccccc1)CCC2 (centres undefined)
2. N#Cc1c(/N=C/c2ccc(O)cc2)c(C(=O)Nc2ccc(Br)cc2)n2c1CCC2

[66.6, 69.2]
